I'd be grateful if you could share measured pEC50 for these entries.
# system: 5-HT2A (Rattus norvegicus, UniProt P14842)
# Construct: [^3H]myo-inositol-labeled A7r5 rat vascular smooth muscle cells; endogenous in cells; host or cells: A7r5 rat vascular smooth muscle cells
# Sequence (P14842 whole entry): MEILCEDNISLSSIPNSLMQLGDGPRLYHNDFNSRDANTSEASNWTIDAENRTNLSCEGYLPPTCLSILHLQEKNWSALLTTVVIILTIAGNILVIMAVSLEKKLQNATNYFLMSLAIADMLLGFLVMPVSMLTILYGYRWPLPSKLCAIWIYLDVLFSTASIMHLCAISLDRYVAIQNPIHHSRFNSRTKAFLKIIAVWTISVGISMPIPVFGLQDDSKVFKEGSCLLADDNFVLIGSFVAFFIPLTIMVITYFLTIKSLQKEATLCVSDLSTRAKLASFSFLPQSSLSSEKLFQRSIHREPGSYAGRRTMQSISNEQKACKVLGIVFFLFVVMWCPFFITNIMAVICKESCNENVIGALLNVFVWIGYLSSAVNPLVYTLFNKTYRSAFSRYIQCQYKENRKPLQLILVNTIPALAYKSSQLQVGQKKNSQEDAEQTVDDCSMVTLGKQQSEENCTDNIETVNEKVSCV
# assayRemarks: 5-HT2 Functional Assay: Phosphoinositide (PI) Turnover Assay in A7r5 cells
# Format: cell-based
# From the text: 5-HT2 Functional Assay: Phosphoinositide (PI) Turnover Assay The relative agonist activity of serotonergic compounds at the 5-HT2 receptor can be determined in vitro using the ability of the compounds to stimulate the production of [^3H]inositol phosphates in [^3H]myo-inositol-labeled A7r5 rat vascular smooth muscle cells by their ability to activate the enzyme phospholipase C. […]
Counter-ions that a name gives are not always drawn.
Please express pEC50 as -log10 of the molar concentration.

Exercise: Find the recorded pEC50 belonging to COc1cc([C@@H](OC)[C@@H](C)N)c(OC)cc1Br [Compound 14] and report it.
Solution: 7.37

Exercise: Consider next the molecule COc1cc([C@@H](O)[C@@H](C)N)c(OC)cc1Br [Compound 11, Hydrochloride] in the same way.
Solution: 5.95

Exercise: Consider next the molecule COc1cc([C@H](O)[C@@H](C)N)c(OC)cc1Br [Compound 8, Hydrochloride] in the same way.
Solution: 5.10

Exercise: Consider next the molecule COc1cc([C@H](OC)[C@@H](C)N)c(OC)cc1Br [Compound 13] in the same way.
Solution: 5.34

Exercise: Consider next the molecule COc1cc([C@@H](O)[C@H](C)N)c(OC)cc1Br [Compound 9] in the same way.
Solution: 5.93

Exercise: Consider next the molecule COc1cc([C@@H](OC)[C@H](C)N)c(OC)cc1Br [Compound 12] in the same way.
Solution: 5.97

----------
# system: 5-HT2A (Rattus norvegicus, UniProt P14842)
# Construct: [^3H]myo-inositol-labeled A7r5 rat vascular smooth muscle cells; endogenous in cells; host or cells: A7r5 rat vascular smooth muscle cells
# assayRemarks: 5-HT2 Functional Assay: Phosphoinositide (PI) Turnover Assay in A7r5 cells
# Assay type: cell-based
# conditions: A7r5 cells, relative to 5-HT (set at 100%)
Structures can show the parent of a compound that is named as a salt.
observable: Emax

Exercise: Find the recorded Emax belonging to COc1cc([C@@H](OC)[C@@H](C)N)c(OC)cc1Br [Compound 14] and report it.
Solution: 111%

Exercise: Consider next the compound COc1cc([C@@H](O)[C@@H](C)N)c(OC)cc1Br [Compound 11, Hydrochloride] in the same way.
Solution: 102%

Exercise: Consider next the compound COc1cc([C@H](OC)[C@@H](C)N)c(OC)cc1Br [Compound 13] in the same way.
Solution: 117%

Exercise: Consider next the compound COc1cc([C@@H](OC)[C@H](C)N)c(OC)cc1Br [Compound 12] in the same way.
Solution: 100%

Exercise: Consider next the compound COc1cc(C(O)C(C)N)c(OC)cc1Br (single isomer, unassigned; (+)) [Compound 10, Hydrochloride] in the same way.
Solution: 47%

Exercise: Consider next the compound COc1cc([C@@H](O)[C@H](C)N)c(OC)cc1Br [Compound 9] in the same way.
Solution: 68%

Exercise: Consider next the compound COc1cc([C@H](O)[C@@H](C)N)c(OC)cc1Br [Compound 8, Hydrochloride] in the same way.
Solution: 57%

----------
Counter-ions that a name gives are not always drawn.
observable: melting point

Exercise: Find the recorded melting point belonging to COc1cc(C(O)C(C)N)c(OC)cc1Br (single isomer, unassigned; (+)) (as salt: hydrochloride) [Compound 10] and report it.
Solution: 213 to 214 °C

Exercise: Consider next the compound COc1cc([C@H](O)[C@@H](C)N)c(OC)cc1Br (as salt: hydrochloride) [Compound 8] in the same way.
Solution: 194 to 196 °C

Exercise: Consider next the compound COc1cc([C@@H](OC)[C@H](C)N)c(OC)cc1Br (as salt: oxalate) [Compound 12] in the same way.
Solution: 186 to 188 °C

Exercise: Consider next the compound COc1cc([C@@H](O)[C@@H](C)N)c(OC)cc1Br (as salt: hydrochloride) [Compound 11] in the same way.
Solution: 214 to 215 °C

Exercise: Consider next the compound CC[C@H](N)[C@H](O)c1cc(OC)c(Br)cc1OC (as salt: oxalate) [Compound 7] in the same way.
Solution: 203 to 205 °C

Exercise: Consider next the compound COc1cc(C(O)CN)c(OC)cc1CCCc1ccccc1 (racemic) (as salt: hydrochloride) [Compound 5] in the same way.
Solution: 174 to 176 °C
